Kindly state %Inh for each of the entries shown.
Tested on: FGFR2;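 further: KINOMEscan kinase panel screen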
measurement conditions: concentration: 1 μM, replicates: in singlicate; n = 1
State just the number; it will be interpreted in %.

%Inh lookup needed for Cc1cccc(-c2nc(-c3ccc(S(C)(=O)=O)cc3)sc2-c2ccncc2)c1 , thanks. 1

%Inh lookup needed for COc1ccc(COc2cc(-n3cnc4ccccc43)sc2C(N)=O)cc1 , thanks. 0

%Inh lookup needed for [2H]C([2H])(c1cccc(C(F)(F)F)c1C)n1ccn2c(=O)nc(N3CCOCC3)cc12 , thanks. 16

%Inh lookup needed for O=c1cc(N2CCOCC2)nc2n(Cc3cccc(C(F)(F)F)c3)ccn12 , thanks. 0

%Inh lookup needed for Cc1cn2c(=O)cc(N3CCOCC3)nc2n1Cc1cccc(Cl)c1Cl , thanks. 26

Value source: paper PMC5540273
